- measurementNotes: Aqueous solubility of Compound B
- Format: physicochemical
- assayConditions: 0.1 M citrate buffer, aqueous buffer; pH 5.0, 0.1M Citrate
measurementName: solubility (µg/mL)
Write the answer as a number in µg/mL, unit excluded.

Supply solubility value. Item: Cl.NC1(c2ccc(-c3nc4ccn5c(=O)[nH]nc5c4cc3-c3ccccc3)cc2)CCC1 [Compound B]
59

----------
- measurementNotes: Aqueous solubility of Compound B
- Assay type: physicochemical
- assayConditions: 0.1 M phosphate buffer, aqueous buffer; pH 5.6, 0.1M Phosphate
measurementName: solubility

Supply solubility value. Item: Cl.NC1(c2ccc(-c3nc4ccn5c(=O)[nH]nc5c4cc3-c3ccccc3)cc2)CCC1
140 µg/mL

----------
- measurementNotes: Aqueous solubility of Compound B
- Assay type: physicochemical
- assayConditions: 0.1 M phosphate buffer, aqueous buffer; pH 6.9, 0.1M Phosphate
measurementName: solubility
Field: value (include unit after the number)

Supply solubility value. Item: Cl.NC1(c2ccc(-c3nc4ccn5c(=O)[nH]nc5c4cc3-c3ccccc3)cc2)CCC1
36 µg/mL

Every entry's value here was drawn from patent US20190374468A1.
